The origin of these recorded values is the NIST ThermoML archive (doi:10.1016/j.jct.2011.11.021).

Would you kindly list activity coefficient for each of these compounds?
assay: activity coefficient (dimensionless); of the first substance listed, at infinite dilution; xn = mol fraction of the nth substance listed; settings: 358.15 K; Liquid; Chromatography; x1 = 0

INSERT INTO assay_data (compound, test_value) VALUES
  ('C=CCCCCC [1-heptene] + COCC[N+]1(C)CCOCC1.O=S(=O)([N-]S(=O)(=O)C(F)(F)F)C(F)(F)F', 19),
  ('CC1CCCCC1 [methylcyclohexane] + COCC[N+]1(C)CCOCC1.O=S(=O)([N-]S(=O)(=O)C(F)(F)F)C(F)(F)F', 19.2),
  ('C1CCCCC1 [cyclohexane] + COCC[N+]1(C)CCOCC1.O=S(=O)([N-]S(=O)(=O)C(F)(F)F)C(F)(F)F', 13.3),
  ('CCOCC [diethyl ether] + COCC[N+]1(C)CCOCC1.O=S(=O)([N-]S(=O)(=O)C(F)(F)F)C(F)(F)F', 3.39),
  ('CC#N [acetonitrile] + COCC[N+]1(C)CCOCC1.O=S(=O)([N-]S(=O)(=O)C(F)(F)F)C(F)(F)F', 0.433),
  ('CCCO [propan-1-ol] + COCC[N+]1(C)CCOCC1.O=S(=O)([N-]S(=O)(=O)C(F)(F)F)C(F)(F)F', 1.63),
  ('CCC[N+](=O)[O-] [1-nitropropane] + COCC[N+]1(C)CCOCC1.O=S(=O)([N-]S(=O)(=O)C(F)(F)F)C(F)(F)F', 0.78),
  ('CCCCCCC [heptane] + COCC[N+]1(C)CCOCC1.O=S(=O)([N-]S(=O)(=O)C(F)(F)F)C(F)(F)F', 36.2);

Report activity coefficient for every entry below.
1. CCO [ethanol] + COCC[N+]1(C)CCOCC1.O=S(=O)([N-]S(=O)(=O)C(F)(F)F)C(F)(F)F
2. Cc1ccc(C)cc1 [1,4-dimethylbenzene] + COCC[N+]1(C)CCOCC1.O=S(=O)([N-]S(=O)(=O)C(F)(F)F)C(F)(F)F
3. CC(C)CC(C)(C)C [2,2,4-trimethylpentane] + COCC[N+]1(C)CCOCC1.O=S(=O)([N-]S(=O)(=O)C(F)(F)F)C(F)(F)F
4. CCCC=O [butanal] + COCC[N+]1(C)CCOCC1.O=S(=O)([N-]S(=O)(=O)C(F)(F)F)C(F)(F)F
5. CC(C)OC(C)C [diisopropyl ether] + COCC[N+]1(C)CCOCC1.O=S(=O)([N-]S(=O)(=O)C(F)(F)F)C(F)(F)F
6. CCCCCCCC [octane] + COCC[N+]1(C)CCOCC1.O=S(=O)([N-]S(=O)(=O)C(F)(F)F)C(F)(F)F

1.26
2.98
37.2
0.909
8.98
51.7

* * *

test: activity coefficient (dimensionless); of the first substance listed, at infinite dilution; xn = mol fraction of the nth substance listed; settings: 338.15 K; Liquid; Chromatography; x1 = 0
Rule: activity coefficient below 10 gives satisfied, anything at or above gives not satisfied.

Input C#CCCCCCC [1-octyne] + COCC[N+]1(C)CCOCC1.O=S(=O)([N-]S(=O)(=O)C(F)(F)F)C(F)(F)F ; condition: activity coefficient strictly below 10. Does it hold? not satisfied

Param item: C1CCCC1 [cyclopentane] + COCC[N+]1(C)CCOCC1.O=S(=O)([N-]S(=O)(=O)C(F)(F)F)C(F)(F)F not satisfied

// repeat for CCOC(C)(C)C [2-ethoxy-2-methylpropane] + COCC[N+]1(C)CCOCC1.O=S(=O)([N-]S(=O)(=O)C(F)(F)F)C(F)(F)F and report satisfied

What do you have for CC#N [acetonitrile] + COCC[N+]1(C)CCOCC1.O=S(=O)([N-]S(=O)(=O)C(F)(F)F)C(F)(F)F ? satisfied

# iterate: CC(=O)O [acetic acid] + COCC[N+]1(C)CCOCC1.O=S(=O)([N-]S(=O)(=O)C(F)(F)F)C(F)(F)F satisfied

Ok, now CCC(C)O (stereo not drawn) [butan-2-ol] + COCC[N+]1(C)CCOCC1.O=S(=O)([N-]S(=O)(=O)C(F)(F)F)C(F)(F)F satisfied

Repeat for the following molecule: CC1CCCCC1 [methylcyclohexane] + COCC[N+]1(C)CCOCC1.O=S(=O)([N-]S(=O)(=O)C(F)(F)F)C(F)(F)F not satisfied

Thanks! And CCCCO [butan-1-ol] + COCC[N+]1(C)CCOCC1.O=S(=O)([N-]S(=O)(=O)C(F)(F)F)C(F)(F)F ? satisfied

Continue with O [water] + COCC[N+]1(C)CCOCC1.O=S(=O)([N-]S(=O)(=O)C(F)(F)F)C(F)(F)F satisfied

And then CCC[N+](=O)[O-] [1-nitropropane] + COCC[N+]1(C)CCOCC1.O=S(=O)([N-]S(=O)(=O)C(F)(F)F)C(F)(F)F , what is it? satisfied

CCc1ccccc1 [ethylbenzene] + COCC[N+]1(C)CCOCC1.O=S(=O)([N-]S(=O)(=O)C(F)(F)F)C(F)(F)F ? satisfied

Also need C=CCCCCC [1-heptene] + COCC[N+]1(C)CCOCC1.O=S(=O)([N-]S(=O)(=O)C(F)(F)F)C(F)(F)F , thanks. not satisfied

Let us now turn to C#CCCCC [1-hexyne] + COCC[N+]1(C)CCOCC1.O=S(=O)([N-]S(=O)(=O)C(F)(F)F)C(F)(F)F satisfied

One more molecule: c1ccncc1 [pyridine] + COCC[N+]1(C)CCOCC1.O=S(=O)([N-]S(=O)(=O)C(F)(F)F)C(F)(F)F satisfied

Repeat for the following molecule: C=CCCCC [hex-1-ene] + COCC[N+]1(C)CCOCC1.O=S(=O)([N-]S(=O)(=O)C(F)(F)F)C(F)(F)F not satisfied

What do you have for CC(C)CO [2-methyl-1-propanol] + COCC[N+]1(C)CCOCC1.O=S(=O)([N-]S(=O)(=O)C(F)(F)F)C(F)(F)F ? satisfied
